Measured values drawn from ChEMBL document CHEMBL5518246 for this set.

- Experiment Summary: Metabolic stability in human liver microsomes assessed as unbound intrinsic clearance at 0.5 uM measured after 4 hrs
- Assay type: ADME, Microsome
Observation Type: CL free (mL/min/kg)

Reference set, count: 5
CC(=O)N1CCO[C@@H](CNC(=O)[C@H](CCc2ccccc2)NC(=O)c2cc(Cl)c(Cl)[nH]2)C1 : 70
C[C@H](NC(=O)[C@H](CCc1ccccc1)NC(=O)c1cc(Cl)c(Cl)[nH]1)c1cn2ccoc2n1 : 333
C[C@H](NC(=O)[C@H](CCc1ccccc1)NC(=O)c1cc(Cl)c(Cl)[nH]1)c1ncccn1 : 200
C[C@H](NC(=O)[C@]1(NC(=O)c2cc(Cl)c(Cl)[nH]2)CO[C@H](c2ccccc2)C1)c1ncc2c(n1)COC2 : 132
C[C@H](NC(=O)[C@H](CCc1ccccc1)NC(=O)c1cc(Cl)c(Cl)[nH]1)c1cn2nccnc2n1 : 200

[P] O=C(NC(CCc1ccccc1)C(=O)NCc1cnc(N2CCOCC2)nc1)c1cc(Cl)c(Cl)[nH]1 (racemic)
[Q] C[C@H](NC(=O)[C@H](CCc1ccccc1)NC(=O)c1cc(Cl)c(Cl)[nH]1)c1nc2cnccc2s1
[R] COCc1cnc(CNC(=O)[C@H](CCc2ccccc2)NC(=O)c2cc(Cl)c(Cl)[nH]2)nc1
[S] CC(C)(NC(=O)[C@H](CCc1ccccc1)NC(=O)c1cc(Cl)c(Cl)[nH]1)c1cn2cccnc2n1
[T] O=C(N[C@@]1(C(=O)NCc2cn3cccnc3n2)CO[C@@H](c2ccccc2)C1)c1cc(Cl)c(Cl)[nH]1
Input line: Rank the 5 compounds: largest CL free first, smallest last. The response must list the labels following the requested ordering.
Output line: P, Q, S, R, T
(P: 1030 mL/min/kg, Q: 500 mL/min/kg, S: 350 mL/min/kg, R: 167 mL/min/kg, T: 115 mL/min/kg)

[a] O=C(N[C@@H](CCc1ccccc1)C(=O)N[C@@H](CO)c1cn2cccnc2n1)c1cc(Cl)c(Cl)[nH]1
[b] CC[C@H](NC(=O)[C@H](CCc1ccccc1)NC(=O)c1cc(Cl)c(Cl)[nH]1)c1cn2cccnc2n1
Input line: Just curious, which one has the larger CL free reading, a or b ? Refer to your chosen entry by its label in the reply.
Output line: a
(a: 938 mL/min/kg, b: 125 mL/min/kg)

[a] C[C@H](NC(=O)[C@]1(NC(=O)c2cc(Cl)c(Cl)[nH]2)CO[C@H](c2ccccc2)C1)c1ncc2c(n1)CN([C@@H]1CCN(C)C1)C2
[b] C[C@H](NC(=O)[C@]1(NC(=O)c2cc(Cl)c(Cl)[nH]2)CO[C@H](c2ccccc2)C1)c1cnc2c(n1)COC2
Input line: Which value of CL free is smaller, the one for a or the one for b ? I would appreciate it if you answered with the label of your choice.
Output line: b

[I] O=C(NC(CCc1ccccc1)C(=O)NCc1cn2ccsc2n1)c1cc(Cl)c(Cl)[nH]1 (racemic)
[II] CN1Cc2cnc(CNC(=O)[C@H](CCc3ccccc3)NC(=O)c3cc(Cl)c(Cl)[nH]3)nc2C1
Input line: Pick one, I or II : lowest reported CL free. I would appreciate it if you answered with the label of your choice.
Output line: II
(II: 140 mL/min/kg, I: 1120 mL/min/kg)

[A] C[C@@H](NC(=O)[C@H](CCc1ccccc1)NC(=O)c1cc(Cl)c(Cl)[nH]1)c1cn2cccnc2n1
[B] O=C(N[C@H](C(=O)NCc1cn2cccnc2n1)[C@H]1C[C@@H]1c1ccccc1)c1cc(Cl)c(Cl)[nH]1
[C] O=C(N[C@@H](CCc1ccccc1)C(=O)NCC1(O)CCOCC1)c1cc(Cl)c(Cl)[nH]1
[D] O=C(NC(CCc1ccccc1)C(=O)NCc1cccnc1N1CCOCC1)c1cc(Cl)c(Cl)[nH]1 (racemic)
[E] C[C@H](NC(=O)[C@]1(NC(=O)c2cc(Cl)c(Cl)[nH]2)CO[C@H](c2ccccc2)C1)c1ncc2c(n1)CN(CC(F)F)C2
Input line: // sort entries: CL free, high to low Please write the labels in the order that was asked for.
Output line: D, B, A, C, E
(D: 817 mL/min/kg, B: 533 mL/min/kg, A: 267 mL/min/kg, C: 113 mL/min/kg, E: 55 mL/min/kg)

[P] C[C@H](NC(=O)[C@]1(NC(=O)c2cc(Cl)c(Cl)[nH]2)CO[C@H](c2ccccc2)C1)c1ncc2c(n1)CCC2
[Q] C[C@H](NC(=O)[C@]1(NC(=O)c2cc(Cl)c(Cl)[nH]2)CO[C@H](c2ccccc2)C1)c1ncc2c(n1)CNC2
[R] COCc1cnc([C@H](C)NC(=O)[C@]2(NC(=O)c3cc(Cl)c(Cl)[nH]3)CO[C@H](c3ccccc3)C2)nc1
Input line: Sort the 3 compounds by CL free; largest first, smallest last. Give me the labels in the order the question wants.
Output line: P, Q, R
(P: 333 mL/min/kg, Q: 217 mL/min/kg, R: 78.3 mL/min/kg)
